Target: Short transient receptor potential channel 6 (Mus musculus)
Sequence (Q61143 whole entry): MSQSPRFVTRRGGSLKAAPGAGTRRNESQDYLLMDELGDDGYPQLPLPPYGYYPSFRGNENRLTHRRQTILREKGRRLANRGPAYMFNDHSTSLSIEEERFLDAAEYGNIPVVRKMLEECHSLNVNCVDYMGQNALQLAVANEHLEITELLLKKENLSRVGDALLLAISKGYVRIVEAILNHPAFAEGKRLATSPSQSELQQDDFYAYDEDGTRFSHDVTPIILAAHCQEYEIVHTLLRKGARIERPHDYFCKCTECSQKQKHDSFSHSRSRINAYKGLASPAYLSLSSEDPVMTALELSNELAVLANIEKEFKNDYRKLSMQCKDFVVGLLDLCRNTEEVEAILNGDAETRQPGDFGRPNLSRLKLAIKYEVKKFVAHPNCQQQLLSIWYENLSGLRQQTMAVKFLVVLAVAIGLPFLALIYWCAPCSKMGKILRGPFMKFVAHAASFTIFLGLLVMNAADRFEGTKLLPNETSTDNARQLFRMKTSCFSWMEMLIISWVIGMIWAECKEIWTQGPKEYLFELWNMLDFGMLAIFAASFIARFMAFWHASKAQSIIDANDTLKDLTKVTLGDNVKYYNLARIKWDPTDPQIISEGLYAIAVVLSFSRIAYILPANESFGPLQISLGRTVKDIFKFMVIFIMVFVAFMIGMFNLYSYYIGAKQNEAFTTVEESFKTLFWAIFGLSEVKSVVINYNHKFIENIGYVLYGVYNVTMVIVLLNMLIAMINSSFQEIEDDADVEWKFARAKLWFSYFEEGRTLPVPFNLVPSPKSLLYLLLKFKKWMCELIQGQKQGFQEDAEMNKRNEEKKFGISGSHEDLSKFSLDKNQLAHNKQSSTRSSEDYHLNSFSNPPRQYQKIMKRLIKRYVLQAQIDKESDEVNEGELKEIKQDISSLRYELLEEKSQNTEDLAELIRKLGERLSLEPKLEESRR
Assay: Inhibition of HA-tagged mouse TRPC6 expressed in HEK293 cells assessed as reduction in acetylcholine-induced membrane potential by FLIPR membrane potential dye based assay
Type: cell-based
metricName: IC50 (µM)
Numbers only, in µM.

Looking up Cc1cc(N2CCCCC2)nc2ccccc12 , I see its IC50 listed as 17.9

###

Target: Short transient receptor potential channel 5 (Homo sapiens, UniProt Q9UL62)
Sequence (Q9UL62 whole entry): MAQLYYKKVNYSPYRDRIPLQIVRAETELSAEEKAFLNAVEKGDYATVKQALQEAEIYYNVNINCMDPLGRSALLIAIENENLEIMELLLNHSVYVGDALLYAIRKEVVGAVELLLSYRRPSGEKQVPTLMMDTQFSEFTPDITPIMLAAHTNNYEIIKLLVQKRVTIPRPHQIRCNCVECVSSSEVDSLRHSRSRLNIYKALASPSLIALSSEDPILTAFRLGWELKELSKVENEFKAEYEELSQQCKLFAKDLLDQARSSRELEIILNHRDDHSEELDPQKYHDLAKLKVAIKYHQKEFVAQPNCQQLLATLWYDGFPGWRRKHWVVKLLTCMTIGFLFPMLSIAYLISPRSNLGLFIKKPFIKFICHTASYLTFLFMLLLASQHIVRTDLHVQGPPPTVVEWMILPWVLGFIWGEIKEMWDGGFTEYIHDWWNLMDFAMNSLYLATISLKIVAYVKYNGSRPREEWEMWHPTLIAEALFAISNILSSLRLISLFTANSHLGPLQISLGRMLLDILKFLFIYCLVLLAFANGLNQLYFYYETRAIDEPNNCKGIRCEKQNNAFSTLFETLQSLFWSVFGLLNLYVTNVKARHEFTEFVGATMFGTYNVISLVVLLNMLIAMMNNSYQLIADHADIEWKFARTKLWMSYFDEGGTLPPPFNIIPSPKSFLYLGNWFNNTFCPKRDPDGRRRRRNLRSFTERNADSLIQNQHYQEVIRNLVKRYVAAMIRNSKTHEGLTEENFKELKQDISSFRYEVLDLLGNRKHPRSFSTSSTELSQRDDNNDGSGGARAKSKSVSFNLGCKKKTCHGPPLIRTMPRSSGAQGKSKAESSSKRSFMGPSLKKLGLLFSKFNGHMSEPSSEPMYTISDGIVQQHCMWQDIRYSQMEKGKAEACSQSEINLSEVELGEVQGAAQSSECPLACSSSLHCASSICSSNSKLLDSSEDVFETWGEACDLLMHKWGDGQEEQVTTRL
Assay: Inhibition of TRPC5 (unknown origin)
metricName: IC50 (nM)
Numbers only, in nM.

IC50 for Short transient receptor potential channel 5 (Homo sapiens, UniProt Q9UL62) with input Cc1nnsc1C(=O)Nc1ccc(-n2nc(C(F)(F)F)cc2C(F)(F)F)cc1 equals 300

###

Target: UniProt:Q9Y210
Sequence (Q9Y210 whole entry): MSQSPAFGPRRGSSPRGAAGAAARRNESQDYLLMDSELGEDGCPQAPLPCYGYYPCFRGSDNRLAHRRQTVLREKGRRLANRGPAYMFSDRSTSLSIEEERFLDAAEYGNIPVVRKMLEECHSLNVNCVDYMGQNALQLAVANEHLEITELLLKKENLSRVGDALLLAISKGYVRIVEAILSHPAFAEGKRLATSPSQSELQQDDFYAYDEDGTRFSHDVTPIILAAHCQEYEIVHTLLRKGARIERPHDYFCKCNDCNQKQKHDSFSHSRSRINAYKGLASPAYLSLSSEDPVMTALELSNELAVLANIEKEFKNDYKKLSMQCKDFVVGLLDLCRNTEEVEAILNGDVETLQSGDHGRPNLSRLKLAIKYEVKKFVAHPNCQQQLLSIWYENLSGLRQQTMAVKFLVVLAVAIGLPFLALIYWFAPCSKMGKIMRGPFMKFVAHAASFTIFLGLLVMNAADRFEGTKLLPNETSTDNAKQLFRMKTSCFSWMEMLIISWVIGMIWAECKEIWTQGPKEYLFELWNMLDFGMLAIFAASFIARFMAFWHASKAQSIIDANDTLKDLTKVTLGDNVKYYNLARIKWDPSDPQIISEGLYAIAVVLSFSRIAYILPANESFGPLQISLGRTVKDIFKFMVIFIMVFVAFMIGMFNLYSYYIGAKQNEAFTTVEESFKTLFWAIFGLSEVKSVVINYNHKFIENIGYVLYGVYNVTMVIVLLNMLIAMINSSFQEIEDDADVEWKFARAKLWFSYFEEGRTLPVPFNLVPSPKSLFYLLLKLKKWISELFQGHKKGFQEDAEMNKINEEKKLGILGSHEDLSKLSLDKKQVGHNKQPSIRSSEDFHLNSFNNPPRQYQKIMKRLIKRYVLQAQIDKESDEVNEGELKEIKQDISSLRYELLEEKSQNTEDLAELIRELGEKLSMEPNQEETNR
Experiment: Inhibition of human TRPC6 expressed in HEK293 cells assessed as reduction in OAG-induced calcium influx preincubated for 2 mins followed by OAG stimulation by fluo-4/AM dye based FLIPR assay
Type: cell-based
metricName: pIC50
Give bare numbers, as −log10 of the molar value.

// recorded pIC50 for C=C[C@@](C)(CC[C@H]1C(=C)C[C@H](OC(N)=O)[C@H]2C(C)(C)CCC[C@]12C)OC(C)=O : 6.60

We next turn to a different molecule, shown below.
Documented pIC50 of C=C[C@](C)(O)CC[C@H]1C(=C)C[C@H](OC(N)=O)[C@H]2C(C)(C)CCC[C@]12C : 6.77
